Recorded logP values for a group of compounds are listed next.
- ASSAY NOTES: log P by HPLC on a reversed-phase column (C 18), EEC Directive 79/831 Annex V.A8
- Format: physicochemical
- TEST SETTINGS: HPLC, reversed-phase column (C 18), 40° C.; 0.1% aqueous formic acid and acetonitrile, linear gradient 10% to 90% acetonitrile
- Experimental: In table 1, the log P values were determined in accordance with EEC Directive 79/831 Annex V.A8 by HPLC (High Performance Liquid Chromatography) on a reversed-phase column (C 18), using the method described below: Temperature: 40° C.; Mobile phases: 0.1% aqueous formic acid and acetonitrile; linear gradient from 10% acetonitrile to 90% acetonitrile. […]
Please give only the number in your answer, with no unit.

Example entries and their recorded answers appear below.
>>> df
                                smiles_code  reported_value
0  Cn1cc(C(=O)N(Cc2cc(F)ccc2C2(C(F)(F)F)CC2)C2CC2)c(C(F)F)n1            3.48
1  CCC1(c2cc(Cl)ccc2CN(C(=O)c2cc(C)oc2C(F)F)C2CC2)CC1            5.28
2  Cc1nn(C)c(F)c1C(=S)N(Cc1ccc(F)cc1C1(C)CC1)C1CC1            4.18
3  Cc1cc(C(=O)N(Cc2cccc(Cl)c2C2(C)CC2)C2CC2)c(C)o1            4.92
4  CCCC1(c2cc(Cl)ccc2CN(C(=O)c2nn(C)nc2C(F)F)C2CC2)CC1            5.31
5  Cn1cc(C(=O)N(Cc2cc(F)ccc2C2(C(F)F)CC2)C2CC2)c(C(F)F)n1            3.09
6  Cc1ccc(C2(C(F)F)CC2)c(CN(C(=S)c2cn(C)nc2C(F)F)C2CC2)c1            3.76
7  C#CC1(c2ccc(C)cc2CN(C(=O)c2c(C)nn(C)c2F)C2CC2)CC1            3.21
8  Cc1ccc(C2(C3CC3)CC2)c(CN(C(=O)c2cn(C)nc2C(F)F)C2CC2)c1            4.11
9  Cn1cc(C(=O)N(Cc2ccc(F)cc2C2(C(F)F)CC2)C2CC2)c(C(F)F)n1            3.09

// recorded logP for `COc1ccc(CN(C(=O)c2c(C)nn(C)c2F)C2CC2)c(C2(C)CC2)c1` : 3.23
